measurement protocol: PC viability by MTT assay
condition notes: human, human pericytes (PC)
assay metric: cytotoxicity at 24 h, 1 μM

[[record]]
query_smiles = "Cc1ccc(NC(=O)c2ccc(CN3CCN(C)CC3)cc2)cc1Nc1nccc(-c2cccnc2)n1"
measured_result = "~20%"

